# Test system: Transgenic T2 Arabidopsis plants and ARBTH WT MC24 non-transgenic
# Method Notes: Greenhouse post spray test, injury 14 DAT (Tables ii, iii);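 further: value is percent injury to the sprayed plants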
# Assay type: in vivo, Arabidopsis thaliana
# Settings: Arabidopsis thaliana, 336 h, Table ii, ARBTH_PPO1_WT event Q, 1 g ai/ha
# if value of pest or weed control at 1 g/ha reaches 30%, tag yes (1); if it stays below, tag no (0)

Example cases with answers are listed next.
> print(dat)
                                   compound                               measured.on  label.value
1  CCOC(=O)COc1ccccc1Oc1nc(-n2c(=O)cc(C(F)(F)F)n(C)c2=O)c(F)cc1F [Uracilpyridine 8]  Transgenic T2 Arabidopsis plants and ARBTH WT MC24 non-transgenic       no (0)
2  Cn1c(C(F)(F)F)cc(=O)n(-c2nc(Oc3ccccc3OCC(=O)O)c(Cl)cc2F)c1=O [Uracilpyridine 5]  Transgenic T2 Arabidopsis plants and ARBTH WT MC24 non-transgenic      yes (1)
3  Cn1c(C(F)(F)F)cc(=O)n(-c2nc(Oc3ccccc3OCC(=O)NS(C)(=O)=O)c(Cl)cc2F)c1=O [Uracilpyridine 10]  Transgenic T2 Arabidopsis plants and ARBTH WT MC24 non-transgenic      yes (1)
4  CCOC(=O)COc1ncccc1Oc1nc(-n2c(=O)cc(C(F)(F)F)n(C)c2=O)c(F)cc1Cl [Uracilpyridine 2]  Transgenic T2 Arabidopsis plants and ARBTH WT MC24 non-transgenic       no (0)

Is reported pest or weed control at 1 g/ha greater than or equal to 30% here: Cn1c(C(F)(F)F)cc(=O)n(-c2nc(Oc3cccnc3OCC(=O)O)c(Cl)cc2F)c1=O [Uracilpyridine 3] no (0)

How about Cn1c(C(F)(F)F)cc(=O)n(-c2nc(Oc3ccccc3OCC(=O)O)c(F)cc2F)c1=O [Uracilpyridine 9] ? no (0)

How about CCOC(=O)COc1ccccc1Oc1nc(-n2c(=O)cc(C(F)(F)F)n(C)c2=O)c(F)cc1Cl [Uracilpyridine 4] ? yes (1)
